# assay procedure: Cytotoxic assay, resazurin reduction test, 48 h
# Assay type: cell-based, human
# settings: human, WS1 skin fibroblasts; WS1, 48 h; read-out: Cytotoxicity IC50 WS1
Attribute: IC50 at 48 h

Some entries whose results are on file:
CC12CCC(CC1=O)C2(C)C (stereo not shown) [Camphor] = > 200 µg/mL
CC1=CCC(O)(C(C)C)CC1 (stereo not shown) [Terpinen-4-ol] = > 200 µg/mL
CC1(C)C2CCC1(C)C(O)C2 (stereo not shown) [Borneol] = > 200 µg/mL

Next:
# lookup: IC50 at 48 h of C=C1C2CCC(C2)C1(C)C (stereo not shown) [Camphene]
49 µg/mL

Value source: paper PMC5590070
